system: 695427-040-R-J1-PDC complex spheroid viability; assay: Anticancer human tumor 695427-040-R-J1-PDC patient-derived colon adenocarcinoma cell line growth inhibition [POLQ]; conditions: second compound 0.0316 µM; first compound 0.01 µM; hits give low values
// reported viability, T/C per item
State just the number; it will be interpreted in %.

Some molecules with known viability, T/C results, for comparison:
Molecule	viability, T/C [%]
CC[C@@]1(O)C(=O)OCc2c1cc1n(c2=O)Cc2cc3c(CN(C)C)c(O)ccc3nc2-1 + Nc1ccc(C#CCN(C(=O)Cc2ncc(C(F)(F)F)cc2C(F)(F)F)c2ccc(F)cc2)nn1	102
Cn1ncnc1[C@H]1c2n[nH]c(=O)c3cc(F)cc(c23)N[C@@H]1c1ccc(F)cc1 + Nc1ccc(C#CCN(C(=O)Cc2ncc(C(F)(F)F)cc2C(F)(F)F)c2ccc(F)cc2)nn1	103
CC[C@@]1(O)C(=O)OCc2c1cc1n(c2=O)Cc2cc3c(CN(C)C)c(O)ccc3nc2-1 + COC1C(OC(N)=O)C(O)C(Oc2ccc3c(O)c(NC(=O)c4ccc(O)c(CC=C(C)C)c4)c(=O)oc3c2C)OC1(C)C	103
Cn1ncnc1[C@H]1c2n[nH]c(=O)c3cc(F)cc(c23)N[C@@H]1c1ccc(F)cc1 + Cc1cccc(N(C)C(=O)C2C(O)CCN2c2nc(C)cc(C(F)(F)F)c2C#N)c1	99
C=CCn1c(=O)c2cnc(Nc3ccc(N4CCN(C)CC4)cc3)nc2n1-c1cccc(C(C)(C)O)n1 + Cc1cccc(N(C)C(=O)C2C(O)CCN2c2nc(C)cc(C(F)(F)F)c2C#N)c1	99.4

The record that follows has no viability, T/C shown yet.
Record request: viability, T/C value, item C=CCn1c(=O)c2cnc(Nc3ccc(N4CCN(C)CC4)cc3)nc2n1-c1cccc(C(C)(C)O)n1 + Nc1ccc(C#CCN(C(=O)Cc2ncc(C(F)(F)F)cc2C(F)(F)F)c2ccc(F)cc2)nn1 99.5

---

// reported viability, T/C for each item listed
tested on: 695427-040-R-J1-PDC complex spheroid viability; test: Anticancer human tumor 695427-040-R-J1-PDC cell line growth inhibition [POLQ]; settings: second compound 1 µM; first compound 10 µM; hits give low values;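 also: spheroids exposed to compounds for seven days; 100% = DMSO vehicle control viability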
A number alone suffices; assume %.

Find the measured viability, T/C: item CCc1cc2c(N3CCc4c(cc(Cn5ccnc5)cc4-c4cn(C)nc4C(F)(F)F)C3=O)cc(C)nc2c(OC)n1 + COC1C(OC(N)=O)C(O)C(Oc2ccc3c(O)c(NC(=O)c4ccc(O)c(CC=C(C)C)c4)c(=O)oc3c2C)OC1(C)C , target or system 695427-040-R-J1-PDC complex spheroid viability. 99.3

And what about the compound COc1cccc2c1C(=O)c1c(O)c3c(c(O)c1C2=O)CC(O)(C(=O)CO)CC3OC1CC(N)C(O)C(C)O1 (centres undefined) + COC1C(OC(N)=O)C(O)C(Oc2ccc3c(O)c(NC(=O)c4ccc(O)c(CC=C(C)C)c4)c(=O)oc3c2C)OC1(C)C ? 50.3

Now try CC1COCCN1c1cc(C2(O)CC3CCC(C2)O3)c2cnn(-c3ccn[nH]3)c2n1 (centres undefined) + Cc1cccc(N(C)C(=O)C2C(O)CCN2c2nc(C)cc(C(F)(F)F)c2C#N)c1 . 46.3

# repeat for COc1ccc([C@@H](O)c2cc(-c3ncnc4cc(N5CCOCC5)ccc34)c(F)cc2Cl)nn1 + Nc1ccc(C#CCN(C(=O)Cc2ncc(C(F)(F)F)cc2C(F)(F)F)c2ccc(F)cc2)nn1 52.2

Request: COc1cc2cc(C(=O)CCC(=O)O)sc2cc1OC + Cc1cccc(N(C)C(=O)C2C(O)CCN2c2nc(C)cc(C(F)(F)F)c2C#N)c1 88.8

Record: CC(C)n1c(=O)n(C)c2cnc3cc(F)c(-c4ccc(OCCCN5CCCCC5)nc4)cc3c21 + Cc1cccc(N(C)C(=O)C2C(O)CCN2c2nc(C)cc(C(F)(F)F)c2C#N)c1 67.2

Note, next up: CCc1cc2c(N3CCc4c(cc(Cn5ccnc5)cc4-c4cn(C)nc4C(F)(F)F)C3=O)ccnc2c(OC)n1 + Cc1cccc(N(C)C(=O)C2C(O)CCN2c2nc(C)cc(C(F)(F)F)c2C#N)c1 82.7

Entry to check: COc1cc(C2c3cc4c(cc3C(OC3OC5COC(C)OC5C(O)C3O)C3COC(=O)C23)OCO4)cc(OC)c1O (centres undefined) + Nc1ccc(C#CCN(C(=O)Cc2ncc(C(F)(F)F)cc2C(F)(F)F)c2ccc(F)cc2)nn1 73.5

Try this compound next: CCc1cc2c(N3CCc4c(cc(Cn5ccnc5)cc4-c4cn(C)nc4C(F)(F)F)C3=O)ccnc2c(OC)n1 + COC1C(OC(N)=O)C(O)C(Oc2ccc3c(O)c(NC(=O)c4ccc(O)c(CC=C(C)C)c4)c(=O)oc3c2C)OC1(C)C 101
